Where do these numbers come from? They come from paper PMC11489056.

# methodNotes: physchem
# Assay type: physicochemical
# appliedConditions: pH 7.4
Let's look at some compounds and their measured logD.

{"columns": ["compound", "boundOperator", "logD"],
 "data": [
  ["COc1ccc2nccc(-n3cc(CCNC(=O)c4ccc5c(c4)NC(=O)CS5)nn3)c2c1 [BDM71367 (11a)]", ">", 2.65],
  ["COc1ccc2nccc(-n3cc(CCNCc4ccc5c(c4)NC(=O)CS5)nn3)c2n1 [BDM71403 (10a)]", "=", 1.92],
  ["COc1ccc2nccc(-n3cc(CCNCc4ccc5c(c4)NC(=O)CS5)nn3)c2c1", "=", 1.81],
  ["COc1ccc2nccc(-n3cc(CCNCc4ccc5c(c4)OCCO5)nn3)c2n1 [BDM71404 (10b)]", "=", 1.53],
  ["COc1ccc2nccc(-n3cc(CCNC(=O)c4ccc5c(c4)OCCO5)nn3)c2c1 [BDM71373 (11b)]", "=", 2.35],
  ["COc1ccc2nccc(-n3cc(CCNCc4ccc5c(c4)OCCO5)nn3)c2c1", "=", 1.21],
  ["COc1ccc2nccc(-n3cc(CCNCc4ccc5c(c4)NC(=O)CO5)nn3)c2c1", "=", 1.32]
]}
